# kon listing for each entry below
- TARGET_OF_ASSAY: T1, human SIRPγ-Fc (human)
- T1 construct: a signal peptide may be part of the entry
- ASSAY_METHOD_TEXT: BLI Octet, antigen-Fc on biosensor;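 further: antigen captured on the biosensor tip and then immersed in solutions of the test antibodies, which act as the analyte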

| BINDER | UNIT_TAG | kon |
| --- | --- | --- |
| SIRPAB-7 (antibody, human IgG1, kappa, V domains shown) VH: QVQLQESGPGLVKPSQTLSLTCTVSGGSISSGEYYWEWIRQHPGKGLEWIGYIYSSGFTYYNPSLKSRVTISVDTSKNQFSLKLSSVTAADTAVYYCAREGLDGSYGSSAWGQGTLVTVSS VL: DIQLTQSPSSLSASVGDRVTITCQASQDISNYLNWYQQKPGKAPKLLIYDASNLETGVPSRFSGSGSGTDFTFTISSLQPEDIATYYCQQFAYLPYTFGGGTKVEIKR | M⁻¹ s⁻¹ | 1.94e+06 |
| SIRPAB-10 (antibody, human IgG1, kappa, V domains shown) VH: QVQLVQSGAEVKKPGASVKVSCKASGYTFTGYPISWVRQAPGQGLEWMGWIYAYGGNTNYAQKLQGRVTMTTDTSTSTAYMELRSLRSDDTAVYYCAREAGSSWYDFDLWGRGTLVTVSS VL: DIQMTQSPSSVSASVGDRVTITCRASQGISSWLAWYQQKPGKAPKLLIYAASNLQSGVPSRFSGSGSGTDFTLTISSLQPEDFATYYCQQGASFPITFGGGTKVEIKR | M⁻¹ s⁻¹ | 1.45e+06 |
| SIRPAB-9 (antibody, human IgG1, kappa, V domains shown) VH: QVQLVQSGAEVKKPGASVKVSCKASGYTFGGYGISWVRQAPGQGLEWMGWISAYGGETNYAQKLQGRVTMTTDTSTSTAYMELRSLRSDDTAVYYCAREAGSSWYDFDLWGRGTLVTVSS VL: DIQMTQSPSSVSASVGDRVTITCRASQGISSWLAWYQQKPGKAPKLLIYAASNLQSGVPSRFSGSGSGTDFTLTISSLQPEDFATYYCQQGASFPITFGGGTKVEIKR | M⁻¹ s⁻¹ | 1.17e+06 |
| SIRPAB-13 (antibody, human IgG1, kappa, V domains shown) VH: QVQLVQSGAEVKKPGASVKVSCKASGYTFHGYGISWVRQAPGQGLEWMGWISAYSGETNYAQKLQGRVTMTTDTSTSTAYMELRSLRSDDTAVYYCAREAGSSWYDFDLWGRGTLVTVSS VL: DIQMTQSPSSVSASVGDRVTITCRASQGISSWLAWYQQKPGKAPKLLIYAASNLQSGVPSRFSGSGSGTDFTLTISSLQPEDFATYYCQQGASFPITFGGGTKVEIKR | M⁻¹ s⁻¹ | 1.35e+06 |
